- System: CCRF-CEM leukemia
- run_description: NCI tumour cell line growth inhibition, 48 h
measured_endpoint: TGI

Consider the worked cases shown below.
O=C(/C=C/c1ccc(O)c(O)c1)OCC(OC(=O)/C=C/c1ccc(O)c(O)c1)C(=O)O (stereo not given) :: > 100 µM
COC1(OC)N=C(N)C2(C#N)C(c3ccccc3)NC3=C(CCC3)C12C#N (stereo not given) :: > 100 µM
CC[C@@H](C)[C@H](NC(=O)[C@H](Cc1ccccc1)NCC(F)(F)F)C(=O)OC(C)(C)C :: > 100 µM
CCCC1(CC(=O)O)OCCc2c1[nH]c1ccccc21 (stereo not given) :: > 100 µM

(Q) Report the value of TGI obtained on CCRF-CEM leukemia for COc1ccc([C@@]2(O)c3c(ccc(O)c3OC)[C@H]2OC)c(OC)c1 .
(A) > 100 µM

(Q) Report the value of TGI obtained on CCRF-CEM leukemia for O=C(CSc1nnc(-c2ccccn2)s1)N/N=C/c1ccccc1 .
(A) > 100 µM

(Q) Report the value of TGI obtained on CCRF-CEM leukemia for O=C(Nc1ccc(Cl)cc1)C1C(=O)C(=O)N(c2ccc(Cl)cc2)C1=O (stereo not given) .
(A) > 100 µM

(Q) Report the value of TGI obtained on CCRF-CEM leukemia for COc1cc(C2c3cc4c(cc3OC(C)(N3CCCC3)C2C)OCO4)cc(OC)c1OC (stereo not given) .
(A) > 50.3 µM

(Q) Report the value of TGI obtained on CCRF-CEM leukemia for Nc1n[nH]c2cccc(C#Cc3cccc(NC(=O)c4cccc(C(F)(F)F)c4)c3)c12 .
(A) 15.9 µM

(Q) Report the value of TGI obtained on CCRF-CEM leukemia for COc1ccc(NC(=O)CC/C(CC(=O)c2ccco2)=N/NC(=O)C(N)=O)cc1 .
(A) > 100 µM

---

- Tested on: T-47D breast
- run_description: NCI tumour cell line growth inhibition, 48 h
measured_endpoint: GI50

Consider the worked cases shown below.
O=c1[nH]c2ccccc2cc1-c1nc2ccc(Cl)cc2[nH]1 :: 3.33 µM
C=C1c2c(C)nn(-c3ccc(C#CCOC4OC(CO)C(O)C(O)C4O)cc3)c2N(C)C23C[C@H]1C1(C)c4c(C)nn(-c5ccc(C#CCOC6OC(CO)C(O)C(O)C6O)cc5)c4N(C)C(C)(C[C@H]12)C3 (some centres not stated) :: 0.687 µM

(Q) Using known records, supply GI50 for CC/C=C\C[C@H]1CC=C2C(=O)C=C[C@@H]2CC=CCCCC(=O)O[C@@H](CCCCC)CC=C2C(=O)C=C[C@@H]2CC=CCCCC(=O)O[C@@H](CCCCC)CC=C2C(=O)C=C[C@@H]2CC=CCCCC(=O)O[C@@H](CCCCC)CC=C2C(=O)C=C[C@@H]2CC=CCCCC(=O)O1
(A) 1.81 µM

(Q) Using known records, supply GI50 for COc1cc(Nc2ncccc2C(=O)Nc2nc3ccc(F)cc3s2)cc(OC)c1OC
(A) 2.3 µM

(Q) Using known records, supply GI50 for CCCCCCCCn1ccc2cc(NC(=O)Cn3cc(CN4CCCCCC4)nn3)ccc21
(A) 1.66 µM

(Q) Using known records, supply GI50 for N/N=C\c1c2ccccc2c(=O)n2c1oc1ccccc12
(A) 20.5 µM

(Q) Using known records, supply GI50 for CCOC(=O)Nc1cc2c(c(N)n1)N=C(c1ccc(OC)cc1)CN2
(A) > 100 µM

---

- System: NCI-H23 lung
- run_description: NCI tumour cell line growth inhibition, 48 h
measured_endpoint: TGI

Cc1cc(N(CC(C)Br)CC(C)Br)ccc1N=Nc1ccccc1C(=O)O (stereo unspecified) :: 18.1 µM
OCC12C=CC(C1)c1ccccc12 (stereo unspecified) :: > 100 µM
COC(=O)C(=O)CC(=O)CCn1[nH]c(=O)c(Cl)c(Cl)c1=O :: > 100 µM
O=C(/C=C/c1ccc(O)c(O)c1)OCC(OC(=O)/C=C/c1ccc(O)c(O)c1)C(=O)O (stereo unspecified) :: > 100 µM
CCC[CH2][Sn]([CH2]CCC)([O]C(=O)CN)[O]C(=O)CN :: 70.2 µM

(Q) Using known records, supply TGI for Cc1ccc(-n2[nH]nc(C(N)=O)c2=O)cc1
(A) > 100 µM

(Q) Using known records, supply TGI for CCC1=CCN(c2cc(C)ccn2)OC1c1ccc(OC)cc1 (stereo unspecified)
(A) > 100 µM

(Q) Using known records, supply TGI for CN(C)CCC(=O)N1C/C(=C\c2ccc(Cl)c(Cl)c2)C(=O)/C(=C/c2ccc(Cl)c(Cl)c2)C1
(A) 1.5 µM

---

- Test system: COLO 205 colon
- run_description: NCI tumour cell line growth inhibition, 48 h; in the data active = GI50 below about 0.43 µM; inactive = the rest
Hi there, use one of these labels in your reply, thanks! Y = active, N = inactive

CCC[CH2][Sn]([CH2]CCC)([O]C(=O)CN)[O]C(=O)CN :: N
O=C1C=CC(=O)C2C1C1(Cl)C(Cl)=C(Cl)C2(Cl)C1(Cl)Cl (stereo not given) :: N
NC(CSC(c1ccccc1)(c1ccccc1)c1ccccc1)C(=O)NCC(=O)O (stereo not given) :: N

(Q) What call does the record list for CCN1C(=O)c2ccc3c4c(ccc(c24)C1=O)C(=O)N(CCCNCc1ccccc1OC)C3=O ?
(A) Y

(Q) What call does the record list for O=C(/C=C/c1ccccc1)Nc1ncc(Cc2ccccc2Cl)s1 ?
(A) Y

---

- Test system: HCC-2998 colon
- run_description: NCI tumour cell line growth inhibition, 48 h
Would you please tag the item True when its TGI is 4 µM or above, and False when it is below?

CCOC(=O)/C=C(\C(=O)OCC)n1cc(C)c(=O)n(Cc2cn(CCCCOC(C)=O)nn2)c1=O :: True
C#CC1(O)C(COP(=O)(O)OCC(COP(=O)(O)OCC2OC(n3cc(F)c(=O)[nH]c3=O)CC2O)OCCCCCCCCCCCCCCCCCC)OC(n2ccc(N)nc2=O)C1O (stereo not drawn) :: False

(Q) Answer whether TGI of Clc1ccc(CCN(CCc2ccc(Cl)c(Cl)c2)CCN2CCCC2)cc1Cl is greater than or equal to 4 µM.
(A) False

(Q) Answer whether TGI of O=c1[nH]c2cc(C(F)(F)F)ccc2nc1C(F)(F)F is greater than or equal to 4 µM.
(A) True

(Q) Answer whether TGI of NC1=NN(c2ccccc2)C(=O)C1C(=O)CCC(=O)Nc1cccc(Cl)c1 (stereo not drawn) is greater than or equal to 4 µM.
(A) True

(Q) Answer whether TGI of OCC12C=CC(C1)c1ccccc12 (stereo not drawn) is greater than or equal to 4 µM.
(A) True

(Q) Answer whether TGI of Nc1n[nH]c2cccc(C#Cc3cccc(NC(=O)c4cccc(C(F)(F)F)c4)c3)c12 is greater than or equal to 4 µM.
(A) True

---

- Test system: A549 NSCLC
- run_description: NCI tumour cell line growth inhibition, 48 h
measured_endpoint: TGI

Consider the worked cases shown below.
COc1ccc2c(c1)/C(=C\c1c(Cl)[nH]c3cc(C)c(OC)cc13)C(=O)N2 :: 18.2 µM
N#CSCC(Cl)=CCl (mixture of isomers) :: > 100 µM
CC(=O)Oc1c(C)c(-c2ccccc2)c(C)c(-c2ccccc2)c1C(=S)c1ccccc1 :: > 100 µM
S=C(N/N=C/c1ccccn1)N1CCCCC1 :: > 100 µM
CSc1c(C(=O)Nc2ccccc2)c(N)n(N)c(=O)c1C#N :: > 100 µM

(Q) Report the value of TGI obtained on A549 NSCLC for Cc1c(-c2ccccc2)cc(O)c2nc3ccccc3n12 .
(A) > 100 µM

---

- Tested on: SW-620 colon
- run_description: NCI tumour cell line growth inhibition, 48 h
Known TGI of a selection of molecules
# unit: µM | format: bare number

Consider the worked cases shown below.
CC1(C)C2CCC1(C)C(N/C(Sc1ccccc1)=C(/C(Cl)=C(Cl)Cl)[N+](=O)[O-])C2 (stereo not given) :: 24
CN(C)C/C=C/C(=O)Nc1ccc(C(=O)N[C@@]2(C)CCC[C@@H](Nc3ncc(Cl)c(-c4c[nH]c5ccccc45)n3)C2)nc1 :: 0.36
C#CCn1c(=O)c(I)cn(/C(=C/C(=O)OCC)C(=O)OCC)c1=O :: 4

(Q) Using known records, supply TGI for CN(C)Cc1cc(C(F)(F)F)ccc1C(O)(c1ccccc1)c1ccccc1
(A) 41

---

Known TGI of a selection of compounds
- Test system: MALME-3M melanoma
- run_description: NCI tumour cell line growth inhibition, 48 h

O=C(Nc1ccc(Cl)cc1)C1C(=O)C(=O)N(c2ccc(Cl)cc2)C1=O (stereo not given) :: > 100 µM
COc1ccc2c(c1)NC1=C(C(=O)OC1)C2c1cc(OC)c(OC)c(OC)c1 (stereo not given) :: > 100 µM
CC(=O)C(C(c1ccccc1)N1CCOCC1)N1CCOCC1 (stereo not given) :: > 100 µM
COc1cc(C2c3cc4c(cc3OC(C)(N3CCCC3)C2C)OCO4)cc(OC)c1OC (stereo not given) :: > 55.2 µM
O=C1C=CC(=O)C2C1C1(Cl)C(Cl)=C(Cl)C2(Cl)C1(Cl)Cl (stereo not given) :: 15.8 µM
CC1(C)C2CCC1(C)C(N/C(Sc1ccccc1)=C(/C(Cl)=C(Cl)Cl)[N+](=O)[O-])C2 (stereo not given) :: 28.4 µM
O=C(O)c1ccc(CN2CCC(CN[C@@H]3C[C@H]3c3ccccc3)CC2)cc1 :: > 100 µM
CCCCCCCCCCCC(=O)OCCOCCOCCOCCOCCOC(=O)CCCCCCCCCCC :: > 100 µM

(Q) Using known records, supply TGI for CC(C)CCNC(=O)c1ccc(CNC(=O)/C=C/c2cccc(Oc3ccccc3)c2)cc1
(A) > 100 µM

(Q) Using known records, supply TGI for Cc1cccc(Cl)c1NCC(O)CN1CCN(C)CC1 (stereo not given)
(A) > 100 µM

Recorded values, source PubChem BioAssay (NCI).
